reported.property: melting point

compound	reported.property	result
C=CCn1c(NC)nn(C(=O)Nc2ccccc2)c1=S	melting point	132 to 133 °C
COc1ccc(Nc2nc(-c3ccc(-c4ccccc4)cc3)cs2)nc1	melting point	212 to 213 °C
O=C(Nc1cccc(F)c1)c1ccc(CN2C(=O)C3(COc4cc5c(cc43)CCO5)c3ccccc32)cc1 (stereo not given)	melting point	> 250 °C
CC(C)(C)N(Cc1ccccc1)CC(O)c1ccc(OCc2ccccc2)c(C(O)CO)c1 (stereo not given)	melting point	148 to 149 °C
O=C(CCN1CCCCC1)Nc1cccc([N+](=O)[O-])c1	melting point	95 to 96 °C
Cc1c(NC(=O)c2ccc(-c3cccc(NC(=O)C(C)C)c3)cc2)ccc2cc(CN3CCCC3)cnc12	melting point	152 to 155 °C
CCN1C=C(C(=O)O)C(=O)CC1c1ccc(OC)cc1 (stereo not given)	melting point	173 to 174 °C
O=C1c2ccccc2C(=O)N1COc1ccncc1	melting point	129 to 131 °C
CC(=O)Nc1ccc(N2CCN(Cc3ncc(-c4ccccc4)o3)CC2)cc1	melting point	196 to 197 °C
CC(O)c1cc(Cl)cc(Cl)c1O (stereo not given)	melting point	70 °C
